Field: pIC50. Provide a value for each of the molecules that follow.
- assay target: Human immunodeficiency virus type 1 integrase (Human immunodeficiency virus 1)
- Sequence (Q7ZJM1 whole entry): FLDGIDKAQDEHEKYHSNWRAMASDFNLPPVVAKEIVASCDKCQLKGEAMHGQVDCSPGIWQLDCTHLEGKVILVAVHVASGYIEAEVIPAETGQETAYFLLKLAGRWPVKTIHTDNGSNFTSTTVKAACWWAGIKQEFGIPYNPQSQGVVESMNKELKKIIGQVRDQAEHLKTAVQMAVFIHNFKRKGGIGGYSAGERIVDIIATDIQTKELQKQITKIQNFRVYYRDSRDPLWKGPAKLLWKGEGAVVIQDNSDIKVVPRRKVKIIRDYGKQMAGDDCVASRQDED
Numbers only, as −log10 of the molar value.

Sample records with pIC50:
O=C(O)C(c1ccc(O)c(O)c1)C(C(=O)O)c1ccc(O)c(O)c1 (stereo not given) = 4.63
O=C1OC(=O)C(c2ccc(O)c(O)c2)=C1c1ccc(O)c(O)c1 = 5.42
O=C(O)c1[nH]c(C(=O)O)c(-c2ccc(O)c(O)c2)c1-c1ccc(O)c(O)c1 = 5.28
O=C(O)C(Cc1ccc(O)c(O)c1)C(Cc1ccc(O)c(O)c1)C(=O)O (stereo not given) = 4.72

Could you now look at the following molecule, please?
Give a short answer stating reported pIC50 for O=C1NC(=O)C(c2ccc(O)c(O)c2)=C1c1ccc(O)c(O)c1 .
4.81
